# System: MS2 coat protein
# protocolText: apparent KD of MS2 coat protein, switch ON state; designed switch direction (-1 OFF switch, 1 ON switch): -1; higher = weaker reporter binding
# protocolConditions: FMN input: 0 or 200 uM; Eterna round: R93 (includes R88 designs)
apparent KD of MS2 coat protein vs 30 nM: at or above is yes (1), below is no (0).

Answered examples (9):
GGCUGGCGAGGAUAUACAUGAGGAUCACCCAUGUGAGAGAAAAAAGUGAGAAAGAAAAGUAGAAGGCGCUGGCG [salish99-ex3-55]	yes (1)
AAAAUACGAGGAUAUACAUGAGGAUCACCCAUGUCAAAAAAUGACUACACAAAAGAAAGUAGAAGGCGUAAAAA [Ex 3 May 16]	no (0)
AUAAAGACAGGAUAUACAUGAGGAUCACCCAUGUAAAAAAAAAAAUGAUCCUCAAAAAGUAGAAGGGUCAAUAA [JR_Exc003_Sub015]	yes (1)
AAGAACGCAGGAUAUACAUGAGGAUCACCCAUGUAAAAGAAAGAAGGGAAAGAGAAAAGUAGAAGGGCGAAGAA [Usermaatre-setepenamun Iuput I]	yes (1)
GUUAUGUGAGGAUAUAUGUAGGAAACUACAUUAAGGGUAUCACAUGAGGAUCACCCAUGUAGAAGGCGCGUAGC [Ex2Try2_Neo]	yes (1)
AAAGGUACAGGAUAUGCGUGGAAAAAGUGUAUUCAAAAAAAACAUGAGGAUCACCCAUGUAGAAGGGUACCAAA [MS2 Riboswitches On Chip Exclusion 2 wbt1]	yes (1)
ACGAACCUAGGAUAUACAUGAGGAUCACCCAUGUACAACUAUCCAUGAAUGACACUCGGUAGAAGGAGGAUCAA [Rileenen]	no (0)
CUCAUGUGAGGAUAUGUACGAAAAAAUAAAAAAAUAAAAGUACAGAAGGCACAUGAGGAUCACCCAUGUGAAAA [EX4 398: Minimal 11]	yes (1)
AGCAGUACAGGAUAUACAUGAGGAUCACCCAUGUGAAAAUAAAGUGGCGUACCACAAAGUAGAAGGGUACUGCA [Mat - Exclusion 3 - JL mod - D31]	yes (1)

Query sequence follows.
apparent KD of MS2 coat protein >= 30 nM for AAAAAACAUGAGGAUCACCCAUGUAAGGAUAUGCUCGAAAGUGCGAAAGCACAAACGAGCAGAAGGUACAAAAA [66%, Wbt, 45] ?
yes (1)
